assay: chemical genetic growth profiling, strain panel (AID 1159580);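 further: tested at 20 µM; growth read once vehicle control cultures reached saturation at 30 °C; 1 = growth at the plate median or of vehicle wells; lower values mean less growth of the strain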; conditions: S. cerevisiae strains, growth OD, strain wild type, active compounds read low
Among all 5,500 compounds or so, about 2,000 (36%) were called active. Inconclusive results (about 18%) are left out. The list shows a part of the results.
Quantity: normalized growth

*Q* Fill in the blank: the reported normalized growth of Cc1cc(NC(=O)Nc2cccc(C(F)(F)F)c2)n(C)n1 is ____.
*A* 0.986 (inactive)

*Q* And what about the compound Cc1c(-c2csc(-c3ccc(Cl)cc3)n2)sc2ccc(Cl)cc12 ?
*A* 1.04 (inactive)

*Q* Also check COP(=O)(NC(C)=O)SC (configuration not stated)
*A* 1.01 (inactive)

*Q* Next record, please: Cn1c(=O)c2c(ncn2CCCl)n(C)c1=O
*A* 1 (inactive)

*Q* How about this compound: Cc1cc(C(F)(F)F)n2nc(-c3ccc(C(C)(C)C)cc3)cc2n1
*A* 0.986 (inactive)

*Q* Entry CC(C)(C)S(=O)(=O)c1cnc(N)nc1N please
*A* 1.01 (inactive)

*Q* # repeat for CCCC(=O)Nc1ccc(OCC(O)CNC(C)C)c(C(C)=O)c1 (configuration not stated)
*A* 1.02 (inactive)

*Q* Entry Cn1c(=O)[nH]c2ncn(C)c2c1=O please
*A* 1 (inactive)

*Q* Try this compound next: Cn1cnc2c1c(=O)[nH]c(=O)n2C
*A* 1.01 (inactive)

*Q* Also, COc1ccc(Oc2ccc(C(F)(F)F)cc2[N+](=O)[O-])cc1 please.
*A* 0.978 (inactive)

*Q* Can you handle CC[C@H]1OC(=O)[C@H](C)[C@@H](O[C@H]2C[C@@](C)(OC)[C@@H](O)[C@H](C)O2)[C@H](C)[C@@H](O[C@@H]2O[C@H](C)C[C@H](N(C)C)[C@H]2O)[C@](C)(O)C[C@@H](C)/C(=N/OCOCCOC)[C@H](C)[C@@H](O)[C@]1(C)O next?
*A* 1.01 (inactive)

*Q* // repeat for O=[N+]([O-])c1ccc(NCCCCCO)nc1 and report
*A* 0.996 (inactive)

*Q* Repeat with CCCN(CCC)c1c([N+](=O)[O-])cc(C(F)(F)F)cc1[N+](=O)[O-]
*A* 1.01 (inactive)

*Q* Record: C[C@]12[C@H](O)CC3C(CC[C@@H]4C[C@@H](O)CC[C@]34C)[C@@]1(O)CC[C@@H]2C1=CC(=O)OC1 (some centres not stated)
*A* 1.03 (inactive)

*Q* Would you kindly repeat that for C[N+]12CCC(CC1)C(OC(=O)C(O)(c1ccccc1)c1ccccc1)C2 (configuration not stated) ?
*A* 0.992 (inactive)

*Q* Entry Nc1c(Cl)cc(C(=O)Nc2cc(Cl)cc(Cl)c2)cc1Cl please
*A* 0.956 (inactive)

*Q* What about Cn1c(=O)c2c(ncn2CCO)n(C)c1=O ?
*A* 0.998 (inactive)

*Q* Likewise for O=C(O)CC[N+](=O)[O-] ?
*A* 0.999 (inactive)

*Q* Also Cn1c(=O)c2c(ncn2C)n(C)c1=O ?
*A* 1 (inactive)

*Q* Same thing, different compound: CN(C)CCC[C@@]1(c2ccc(F)cc2)OCc2cc(C#N)ccc21
*A* 1.02 (inactive)

*Q* Entry to check: FC(F)(F)c1cc(-c2ccco2)nc2cc(-c3ccco3)nn12
*A* 0.988 (inactive)

*Q* Okay, and CC(=O)CCCCn1c(=O)c2c(ncn2C)n(C)c1=O ?
*A* 1.02 (inactive)

====

experiment: chemical genetic growth profiling, strain panel (AID 1159580);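 further: tested at 20 µM; growth read once vehicle control cultures reached saturation at 30 °C; 1 = growth at the plate median or of vehicle wells; lower values mean less growth of the strain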; details: S. cerevisiae deletion strains, growth OD, locus YLL026W, active compounds read low
Hit rate of the full screen: of about 5,500 compounds, about 2,000 (36%) were called active. Another 18% or so got no clear call; they are omitted. The list shows a part of the results.
Quantity: normalized growth
Answer with the value's number alone.

*Q* What measured normalized growth goes with NS(=O)(=O)c1cc2c(cc1Cl)NCNS2(=O)=O ?
*A* 1

*Q* Also, CC1(C)CC23C(=O)CCC(O)C2(C)CCC13 (stereo unspecified) please.
*A* 0.994

*Q* Try this compound next: C=CC[C@@H]1/C=C(\C)C[C@H](C)C[C@H](OC)[C@H]2O[C@@](O)(C(=O)C(=O)N3CCCC[C@H]3C(=O)O[C@H](/C(C)=C/[C@@H]3CC[C@@H](O)[C@H](OC)C3)[C@H](C)[C@@H](O)CC1=O)[C@H](C)C[C@@H]2OC
*A* 1.02

*Q* Consider next the compound COc1ccc(-c2c(O)c3c(OC)c4c(cc3oc2=O)OC(C)(C)C=C4)cc1 in the same way.
*A* 0.959

*Q* Try this compound next: CCCCCCCCCCCCCCCC(=O)OC[C@H](NC(=O)C(Cl)Cl)[C@H](O)c1ccc([N+](=O)[O-])cc1
*A* 1

*Q* Here is the next compound: O=C(N[C@@H](CO)[C@H](O)c1ccc([N+](=O)[O-])cc1)C(Cl)Cl
*A* 0.998

*Q* Here is the next compound: CC(C)c1cc2c(c(O)c1O)[C@@]1(C(=O)O)CCCC(C)(C)C1CC2 (stereo partly specified)
*A* 0.932

*Q* Now try COc1cc([C@@H]2c3cc4c(cc3[C@H](O)[C@H]3COC(=O)[C@H]23)OCO4)cc(OC)c1OC .
*A* 1

*Q* Please do the same for O=C(CCc1ccc(O)cc1)c1c(O)cc(O)cc1O as well.
*A* 1.01

*Q* Another: Cc1cc(O)c2c(c1)C(=O)c1cccc(O)c1C2=O
*A* 1

*Q* Same read-out for COc1cc(O)ccc1C(C)=O ?
*A* 1.01

*Q* Now try COc1ccc([C@@H](C)C(=O)c2ccc(O)cc2O)cc1 .
*A* 0.988

*Q* Try this compound next: CN1CCN(C2=Nc3cc(Cl)ccc3Nc3ccccc32)CC1
*A* 1

*Q* For CNC(=O)N(C)c1nnc(C(C)(C)C)s1 then?
*A* 0.992

*Q* What do we get for O=C(O)CCC(=O)OC[C@@H](NC(=O)C(Cl)Cl)[C@H](O)c1ccc([N+](=O)[O-])cc1 ?
*A* 0.974

*Q* Try this compound next: CC(=O)OC[C@@]1(O)C[C@@]23CCC4c5ccoc5CC[C@]4(C)C2CC[C@@H]1C3 (stereo partly specified)
*A* 1.02

*Q* And ClC1C(Cl)C(Cl)C(Cl)C(Cl)C1Cl (stereo unspecified) ?
*A* 0.956

*Q* What do we get for COC(=O)C[C@H]1C(C)(C)[C@@H](OC(C)=O)[C@@H]2CC3=C4CC(=O)O[C@@H](c5ccoc5)[C@]4(C)CCC3[C@@]1(C)C2=O (stereo partly specified) ?
*A* 0.998

*Q* Another compound: COc1cc(Cc2cnc(N)nc2N)cc(OC)c1OC
*A* 1.01

*Q* Try the compound COC1=CC23CCCN2CCc2cc4c(cc2C3C1O)OCO4 (stereo unspecified)
*A* 1.02

*Q* Continue with COc1ccccc1OCC(O)COC(N)=O (stereo unspecified)
*A* 0.995

====

assay: chemical genetic growth profiling, strain panel (AID 1159580);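 further: tested at 20 µM; growth read once vehicle control cultures reached saturation at 30 °C; 1 = growth at the plate median or of vehicle wells; lower values mean less growth of the strain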; conditions: S. cerevisiae deletion strains, growth OD, locus YNL128W, strain TEP1, active compounds read low
About 2,000 (36%) of roughly 5,500 compounds were called active. Inconclusive results (about 18%) are left out. Some of the results follow.
Would you kindly list normalized growth for each of these molecules?
Reply: number alone, nothing else.

*Q* For the molecule shown here, O=C1c2ccccc2C(=O)c2ccccc21 , give the reported normalized growth.
*A* 0.946

*Q* Also COc1cc([C@@H]2c3cc4c(cc3[C@H](O)[C@H]3COC(=O)[C@H]23)OCO4)cc(OC)c1OC , if possible.
*A* 1.02

*Q* // repeat for Cc1cc(O)c2c(c1)C(=O)c1cc(O)cc(O)c1C2=O and report
*A* 0.713

*Q* One more molecule: CCCCN(CC)c1c([N+](=O)[O-])cc(C(F)(F)F)cc1[N+](=O)[O-]
*A* 1.02

*Q* Would you mind doing Cn1c(Sc2ccc(C(F)(F)F)cc2[N+](=O)[O-])nnc1C(F)(F)F as well?
*A* 0.994

*Q* # repeat for NC1CCc2cc(O)c(O)cc2C1 (stereo not drawn)
*A* 1.01

*Q* Next: Oc1cc2c(cc1O)[C@H]1c3ccccc3CN[C@@H]1CC2
*A* 1.01

*Q* Next up: Cc1ccc(S(=O)(=O)N2CCN(CCOc3ccccc3)CC2)cc1
*A* 0.997

*Q* Record: CC(=O)OC[C@@]1(O)C[C@@]23CCC4c5ccoc5CC[C@]4(C)C2CC[C@@H]1C3 (stereo partly drawn)
*A* 0.997

*Q* Next up: COc1cc(OC)c2c(OC)c(-c3ccc4c(c3)OCO4)c(=O)oc2c1
*A* 1

*Q* Okay, and O=[N+]([O-])c1cc(C(F)(F)F)cc([N+](=O)[O-])c1Oc1ccc(Cl)c(Cl)c1 ?
*A* 0.0548

*Q* Further, for CC(C)OC(=O)Nc1cccc(Cl)c1 ?
*A* 1.01

*Q* What would you report for O=C1C=C(O)c2ccccc2C1=O ?
*A* 0.974

*Q* Also need CC(C)C1CCC(C(=O)N[C@@H](Cc2ccccc2)C(=O)O)CC1 (stereo partly drawn) , thanks.
*A* 0.971

*Q* Next: CCCCC#Cc1ccc(C(=O)NNC(=O)Nc2cc(Cl)cc(Cl)c2)o1
*A* 0.995

*Q* Another molecule to check: COc1cc2cccc(OC)c(=O)c2c(OC)c1OC
*A* 1

*Q* Same for COc1cc(O)c2c(c1)C(=O)c1cc(C)cc(O)c1C2=O
*A* 1.02

*Q* // next record COc1ccc(-c2c(O)c3c(OC)c4c(cc3oc2=O)OC(C)(C)C=C4)cc1
*A* 0.997

*Q* Please give the result for Cc1c(NC(C)C)c(=O)n(-c2ccccc2)n1C too.
*A* 1

*Q* One more molecule: CCCN(CCC)c1c([N+](=O)[O-])cc(C(F)(F)F)cc1[N+](=O)[O-]
*A* 1

*Q* Also Clc1cc(Cl)cc(Br)c1 ?
*A* 1.02

*Q* Now this one: CNC(=O)c1cc2c(cn1)[nH]c1ccccc12
*A* 0.97

*Q* # iterate: CC1=C(C)C(=O)C(CCCCC#CCCCC#CCO)=C(C)C1=O
*A* 0.998

Where these numbers come from: PubChem BioAssay AID1159580
